From: paper PMC3646888

Measured on: CYP2B1 (Rattus norvegicus)
Sequence (P00176 1-491): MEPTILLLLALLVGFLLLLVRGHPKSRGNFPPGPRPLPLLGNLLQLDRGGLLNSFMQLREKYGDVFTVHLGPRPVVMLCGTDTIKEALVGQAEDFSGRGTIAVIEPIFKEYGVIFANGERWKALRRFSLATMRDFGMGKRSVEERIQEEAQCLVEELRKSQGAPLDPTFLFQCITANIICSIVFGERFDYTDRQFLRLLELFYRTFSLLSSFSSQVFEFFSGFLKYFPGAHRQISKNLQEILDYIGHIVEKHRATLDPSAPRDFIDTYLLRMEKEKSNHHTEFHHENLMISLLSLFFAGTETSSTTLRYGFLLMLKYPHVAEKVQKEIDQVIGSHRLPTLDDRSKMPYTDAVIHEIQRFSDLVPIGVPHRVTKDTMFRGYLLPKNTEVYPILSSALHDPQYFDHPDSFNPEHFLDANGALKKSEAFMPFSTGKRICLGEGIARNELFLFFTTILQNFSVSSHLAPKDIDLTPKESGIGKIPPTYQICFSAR
Method: Fluorescence-based CYP assay, recombinant CYP2B1, substrate EFC

Entry smiles	IC50 [µM]
Clc1ccccc1C(c1ccccc1)(c1ccccc1)n1cccn1	3
